- system: Sphingosine 1-phosphate receptor 1 (Homo sapiens)
- Sequence (P21453 whole entry): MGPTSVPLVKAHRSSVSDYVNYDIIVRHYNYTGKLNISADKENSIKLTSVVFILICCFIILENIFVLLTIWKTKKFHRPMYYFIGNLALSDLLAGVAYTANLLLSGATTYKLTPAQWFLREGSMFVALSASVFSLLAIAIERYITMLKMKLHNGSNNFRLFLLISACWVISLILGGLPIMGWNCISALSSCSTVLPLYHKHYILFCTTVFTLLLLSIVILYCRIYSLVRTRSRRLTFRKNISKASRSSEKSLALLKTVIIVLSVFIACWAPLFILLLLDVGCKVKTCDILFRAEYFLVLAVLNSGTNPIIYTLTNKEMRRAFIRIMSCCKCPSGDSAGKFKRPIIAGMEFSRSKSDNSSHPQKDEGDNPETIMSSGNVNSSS
- method_description: Agonist activity at S1P1 receptor
measure_name: pEC50
Kindly note that pEC50 refers to -log10 of the concentration in mol/L and answer with the value alone.

Please review the entries below; each comes with its answer.
[
  {
    "chem_smiles": "CC/N=C1\\S/C(=C\\c2cc(C)n(-c3ccccc3)c2C)C(=O)N1CC",
    "pEC50": 7.17
  },
  {
    "chem_smiles": "C/N=C1\\S/C(=C\\c2cc(C)n(-c3ccc(Cl)cc3F)c2C)C(=O)N1C",
    "pEC50": 5.52
  }
]

Read the next record carefully.
# query: pEC50 of entry `C/N=C1\S/C(=C\c2cc(C)n(Cc3ccccc3)c2C)C(=O)N1C` 6.14

----------
- system: Sphingosine 1-phosphate receptor 4 (Homo sapiens) (UniProt O95977)
- Sequence (O95977 whole entry): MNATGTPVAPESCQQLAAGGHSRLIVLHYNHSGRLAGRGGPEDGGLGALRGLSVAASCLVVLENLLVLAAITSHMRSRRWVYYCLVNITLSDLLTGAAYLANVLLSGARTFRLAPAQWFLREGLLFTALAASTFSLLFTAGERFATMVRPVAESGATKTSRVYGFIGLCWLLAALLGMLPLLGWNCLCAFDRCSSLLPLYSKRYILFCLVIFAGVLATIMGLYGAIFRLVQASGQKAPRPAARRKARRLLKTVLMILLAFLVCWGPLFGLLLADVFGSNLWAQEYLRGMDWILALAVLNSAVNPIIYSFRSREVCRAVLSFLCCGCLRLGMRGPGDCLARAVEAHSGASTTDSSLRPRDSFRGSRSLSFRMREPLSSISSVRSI
- method_description: Agonist activity at S1P4 receptor relative to control
- Format: functional
measure_name: Efficacy (%)
Note: unit % is implicit; provide only the numeric part.

Please review the entries below; each comes with its answer.
[
  {
    "chem_smiles": "C/N=C1\\S/C(=C\\c2cc(C)n(CCc3ccccc3)c2C)C(=O)N1C",
    "unit_spec": "%",
    "Efficacy": 20
  },
  {
    "chem_smiles": "C/N=C1\\S/C(=C\\c2cc(C)n(-c3ccc(F)c(C#N)c3)c2C)C(=O)N1C",
    "unit_spec": "%",
    "Efficacy": 50
  },
  {
    "chem_smiles": "CC/N=C1\\S/C(=C\\c2cc(C)n(-c3ncccc3F)c2C)C(=O)N1CC",
    "unit_spec": "%",
    "Efficacy": 70
  },
  {
    "chem_smiles": "C/N=C1\\S/C(=C\\c2cc(C)n(-c3ncccc3F)c2C)C(=O)N1C",
    "unit_spec": "%",
    "Efficacy": 70
  },
  {
    "chem_smiles": "Cc1cc(/C=C2\\S/C(=N\\c3ccccn3)NC2=O)c(C)n1-c1ccccc1F",
    "unit_spec": "%",
    "Efficacy": 70
  }
]

Read the next record carefully.
# query: Efficacy of entry `C/N=C1\S/C(=C\c2cc(C)n(-c3cccc(F)c3)c2C)C(=O)N1C` 60

----------
- system: Sphingosine 1-phosphate receptor 4 (Homo sapiens, UniProt O95977)
- method_description: Agonist activity at S1P4 receptor in human U2OS cells expressing VP16-GAL4 transcriptional factor and beta-arrestin/TEV protease fusion protein assessed as migration of VP16-GAL4 into nucleus by FRET based beta lactamase reporter gene assay
measure_name: EC50 (nM)
Note: unit nM is implicit; provide only the numeric part.

Please review the entries below; each comes with its answer.
[
  {
    "chem_smiles": "C/N=C1/NC(=O)/C(=C/c2cnn(-c3ccc(F)cc3)c2C)S1",
    "unit_spec": "nM",
    "EC50": 3800
  },
  {
    "chem_smiles": "Cc1cc(/C=C2\\S/C(=N\\CCO)N(C)C2=O)c(C)n1-c1ccccc1F",
    "unit_spec": "nM",
    "EC50": 306
  },
  {
    "chem_smiles": "C/N=C1\\S/C(=C\\c2cc(C)n(-c3ccccn3)c2C)C(=O)N1C",
    "unit_spec": "nM",
    "EC50": 1800
  },
  {
    "chem_smiles": "C/N=C1\\S/C(=C\\c2cc(C)n(-c3ccc(Cl)cc3F)c2C)C(=O)N1C",
    "unit_spec": "nM",
    "EC50": 440
  },
  {
    "chem_smiles": "CC/N=C1\\S/C(=C\\c2cc(C)n(Cc3c(F)cccc3F)c2C)C(=O)N1CC",
    "unit_spec": "nM",
    "EC50": 314
  },
  {
    "chem_smiles": "Cc1cc(/C=C2\\S/C(=N\\CCO)N(C)C2=O)c(C)n1Cc1ccccc1",
    "unit_spec": "nM",
    "EC50": 396
  },
  {
    "chem_smiles": "C/N=C1\\S/C(=C\\c2cc(C)n(Cc3ccc(F)cc3F)c2C)C(=O)N1C",
    "unit_spec": "nM",
    "EC50": 147
  },
  {
    "chem_smiles": "Cc1cc(/C=C2\\S/C(=N\\c3ccccc3)N(C)C2=O)c(C)n1-c1ccccc1F",
    "unit_spec": "nM",
    "EC50": 2800
  }
]

# query: EC50 of entry `C/N=C1\S/C(=C\c2cc(C)n(-c3ncccc3F)c2C)C(=O)N1C` 3100
